- experimental-system: T1, mouse tissue factor pathway inhibitor (TFPI) (mouse, UniProt O54819 29-289, limits assumed)
- T1 construct: bought; also called mTFPI; murine TFPI
- T1 sequence (looked up): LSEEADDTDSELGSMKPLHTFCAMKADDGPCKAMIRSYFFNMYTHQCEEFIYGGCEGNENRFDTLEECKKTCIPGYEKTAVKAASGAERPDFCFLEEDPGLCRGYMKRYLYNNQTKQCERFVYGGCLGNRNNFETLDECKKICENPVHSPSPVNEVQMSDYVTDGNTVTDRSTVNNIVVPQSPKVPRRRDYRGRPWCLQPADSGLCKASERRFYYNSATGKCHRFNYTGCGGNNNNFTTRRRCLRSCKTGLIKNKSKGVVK
- protocol-description: SPR, TFPI immobilized
Reported Kd values for a set of binders
Return type: number; implicit unit nM.

Solved cases (3 shown):
2A8-g200 (HC Q1E+R30S+S35D+S55R+S56G+K99L/LC D1S+I2Y+A13S+S21T+R28P+N29K+Y48F+N51V+E80M+S89A+D91W+D92S+G93S+V94T) (Fab, V domains shown) VH: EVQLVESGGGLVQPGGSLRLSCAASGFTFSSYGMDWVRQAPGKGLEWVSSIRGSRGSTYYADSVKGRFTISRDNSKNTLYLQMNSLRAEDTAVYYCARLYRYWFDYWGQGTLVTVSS VL: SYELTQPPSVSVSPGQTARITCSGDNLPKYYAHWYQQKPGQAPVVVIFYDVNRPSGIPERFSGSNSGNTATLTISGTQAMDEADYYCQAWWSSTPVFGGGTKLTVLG = 0.121
2A8-227 (HC S35D+K99L/LC Y48F+D91L+V96W) (Fab, V domains shown) VH: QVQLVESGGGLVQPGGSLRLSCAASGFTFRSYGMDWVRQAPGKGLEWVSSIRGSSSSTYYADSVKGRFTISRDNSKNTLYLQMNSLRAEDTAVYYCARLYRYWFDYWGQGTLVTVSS VL: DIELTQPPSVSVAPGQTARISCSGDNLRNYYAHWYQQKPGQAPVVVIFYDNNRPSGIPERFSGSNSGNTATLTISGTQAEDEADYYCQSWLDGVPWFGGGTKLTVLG = 0.153
2A8 wild-type Fab (Fab, V domains shown, Fab with c-myc (or HA, or none) and 6xHis tag at the C-terminus of the heavy chain; also called 2A8wt; 2A8 wt) VH: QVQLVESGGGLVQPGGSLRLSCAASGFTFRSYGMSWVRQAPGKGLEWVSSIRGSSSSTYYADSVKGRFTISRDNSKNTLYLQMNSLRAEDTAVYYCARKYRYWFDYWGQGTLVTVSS VL: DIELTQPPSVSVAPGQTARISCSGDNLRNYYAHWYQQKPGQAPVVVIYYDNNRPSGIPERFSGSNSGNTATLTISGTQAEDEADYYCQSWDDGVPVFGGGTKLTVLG = 3.29

Lookup: Give the value of Kd reported for the following: 2A8-216 (HC S31V+I51D+S55R+K99V/LC Y48F+D91L+V96W) (Fab, V domains shown) VH: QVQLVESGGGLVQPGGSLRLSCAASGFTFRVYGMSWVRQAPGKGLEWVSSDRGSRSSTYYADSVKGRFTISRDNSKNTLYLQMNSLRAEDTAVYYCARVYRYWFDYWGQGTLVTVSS VL: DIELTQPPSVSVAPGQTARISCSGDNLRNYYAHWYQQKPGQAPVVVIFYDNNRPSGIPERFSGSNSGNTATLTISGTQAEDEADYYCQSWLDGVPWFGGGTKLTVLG
Found: 0.0515

Lookup: Write down Kd measured for item 2A8-g216 (HC S31V+I51D+S55R+K99V/LC D1S+I2Y+A13S+S21T+R28P+N29K+Y48F+N51S+E80M+D91L+D92S+V94T+V96W) (Fab, V domains shown) VH: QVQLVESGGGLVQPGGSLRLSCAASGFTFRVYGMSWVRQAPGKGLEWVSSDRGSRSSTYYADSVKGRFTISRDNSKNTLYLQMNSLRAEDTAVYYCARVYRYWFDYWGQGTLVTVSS VL: SYELTQPPSVSVSPGQTARITCSGDNLPKYYAHWYQQKPGQAPVVVIFYDSNRPSGIPERFSGSNSGNTATLTISGTQAMDEADYYCQSWLSGTPWFGGGTKLTVLG
Found: 0.0791
